target: Cytochrome P450 2D6 (Homo sapiens) (UniProt P10635)
Sequence (P10635 whole entry, looked up): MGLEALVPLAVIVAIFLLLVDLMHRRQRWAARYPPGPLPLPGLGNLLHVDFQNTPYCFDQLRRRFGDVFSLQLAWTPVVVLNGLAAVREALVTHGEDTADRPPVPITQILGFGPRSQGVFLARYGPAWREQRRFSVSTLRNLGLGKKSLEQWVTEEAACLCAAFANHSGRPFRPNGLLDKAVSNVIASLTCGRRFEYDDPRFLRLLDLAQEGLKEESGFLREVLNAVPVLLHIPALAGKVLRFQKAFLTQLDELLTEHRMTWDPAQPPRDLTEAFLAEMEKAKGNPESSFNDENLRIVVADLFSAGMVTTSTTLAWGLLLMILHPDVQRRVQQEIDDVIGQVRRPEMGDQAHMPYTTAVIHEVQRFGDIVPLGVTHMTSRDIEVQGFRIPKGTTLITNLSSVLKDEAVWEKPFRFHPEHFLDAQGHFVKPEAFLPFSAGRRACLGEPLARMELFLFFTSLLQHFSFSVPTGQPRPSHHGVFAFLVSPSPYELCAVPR
protocol.notes: Cytochrome panel assay with activity outcomes
experimental.context: recombinant CYP, pro-luciferin dealkylation, luminescence, p450-cyp2d6; series mostly up to 57.1 µM
About 2,600 (16%) of roughly 16,000 compounds were called active. Roughly 20% stayed inconclusive and do not appear here. The list is a sample of the results.
metric.name: outcome

compound	metric.name	data.value
CCC(=O)NC(=S)Nc1ccc(NC(=O)COc2ccc(Cl)cc2Cl)cc1	outcome	inactive
CC(C)NC(=O)N1CCC2(CC1)CCN(C(=O)c1ccncc1)CC2	outcome	inactive
COc1cccc2c1OC1(C)CC2/C(=C(\C)O)C(=O)N1 (stereo not drawn)	outcome	inactive

All figures here come from PubChem BioAssay AID1851.
